Task for the reader: assign each of the following binders its reported FIG. 30 FACS value (IC17=0, DQN0139bb=100).
- ASSAYED TARGET: T1, HLA-DQ2.5/secalin 1 peptide complex on Ba/F3 cells (human; rye)
- T1 construct: also called Ba/F3-HLA-DQ2.5/secalin 1 peptide
- PROTOCOL TEXT: FACS
Lab note: jot the number down without any unit.

Sample DQN0334bb (antibody, human IgG1, kappa, V domains shown, also called DQN0334Hb; DQN0334Lb) VH: QQQLEESGGDLVQPEGSLTLTCKASGFDFSFNAMCWVRQAPGRGPEWIACIYNGNGSTYYASWAKGRFTISKTSSTSVTLQMTSLTAADTATYFCARGGYGLGYAGYGDVNYFNLWGPGTLVTVSS VL: AVVLTQTASPVSAPVGGTVTIKCQASEDIYFLLAWYRQKPGQPPKLLIYGASTLASGVPSRFKGSGSGTEYTLTISDLECADAATYYCQSYWYGDSGPNTFGGGTKVEIKR ; FIG. 30 FACS value (IC17=0, DQN0139bb=100) observed: 5

Form field FIG. 30 FACS value (IC17=0, DQN0139bb=100), entry DQN0303hh (antibody, human IgG1, kappa, V domains shown, also called DQN0303Lh) VH: QQHLEESGGGLVKPGGTLTLTCTASGIDFSSYYYMCWVRQAPGKGLEWIACIYTGDGSTYYASWVNGRFTISRSTSLNTVTLQLNGLAAADTATYFCARSYGASSAIGYFNLWGPGTLVTVSS VL: DVVMTQTPSSKSAAVGGTVTIKCQASQNIYSNLAWYQQKPGQRPKLLIYEASTLASGVPSRFRGSGSGTEFTLTISDLECDDAATYYCQNYYYTSSNDFYTFGGGTKVEIKR : 64.5

The binder identified as DQN0324hh (antibody, human IgG1, kappa, V domains shown, also called DQN0324Lh) VH: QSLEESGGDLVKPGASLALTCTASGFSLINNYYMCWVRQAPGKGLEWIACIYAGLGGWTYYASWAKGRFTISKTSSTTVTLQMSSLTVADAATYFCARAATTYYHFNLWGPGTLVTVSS VL: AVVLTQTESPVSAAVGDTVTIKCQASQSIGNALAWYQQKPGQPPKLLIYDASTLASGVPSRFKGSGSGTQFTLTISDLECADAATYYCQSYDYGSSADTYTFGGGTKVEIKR registered its FIG. 30 FACS value (IC17=0, DQN0139bb=100) at 16.3
